Biological target: Pyruvate kinase PKLR (Homo sapiens) (UniProt P30613)
Sequence (P30613 whole entry, looked up): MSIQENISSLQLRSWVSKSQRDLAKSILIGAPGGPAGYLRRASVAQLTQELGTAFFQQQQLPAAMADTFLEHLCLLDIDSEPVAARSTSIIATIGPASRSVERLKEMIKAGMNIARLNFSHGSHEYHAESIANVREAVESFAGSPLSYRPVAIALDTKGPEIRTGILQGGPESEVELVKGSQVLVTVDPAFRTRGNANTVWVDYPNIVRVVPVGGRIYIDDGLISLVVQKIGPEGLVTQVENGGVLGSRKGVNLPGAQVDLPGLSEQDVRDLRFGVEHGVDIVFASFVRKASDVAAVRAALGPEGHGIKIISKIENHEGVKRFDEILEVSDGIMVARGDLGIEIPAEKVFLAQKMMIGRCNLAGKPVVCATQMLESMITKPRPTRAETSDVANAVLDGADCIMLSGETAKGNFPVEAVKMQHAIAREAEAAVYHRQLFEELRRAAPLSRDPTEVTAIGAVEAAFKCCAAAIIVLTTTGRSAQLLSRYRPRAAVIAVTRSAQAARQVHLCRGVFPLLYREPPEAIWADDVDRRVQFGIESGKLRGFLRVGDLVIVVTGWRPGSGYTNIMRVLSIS
Assay: Secondary LDH Assay for Activators of Human Reticulocyte Pyruvate Kinase: for Probe SAR
Conditions: purified hPK-R, LDH-coupled NADH fluorescence kinetic; series mostly up to 58.4 µM
Records with an inconclusive call do not appear. Activity calls are given as the source filed them. The call rests on the fitted dose curve; in most records, active means well fitted curve in the direction sought with a large enough effect; inconclusive means small, poorly fitted or top-dose-only effect, or effect the other way, or another doubt; inactive means no such curve, though single readings can be large or run the other way.
REPORTED METRIC: outcome

ITEM SMILES: CC(=O)Nc1cccc(S(=O)(=O)Nc2ccc(C)c(C)c2)c1
VALUE REPORTED: inactive
--
ITEM SMILES: CC(=O)N1CCc2cc(S(=O)(=O)Nc3ccc(C)c(C)c3)ccc21
VALUE REPORTED: inactive
--
ITEM SMILES: Cc1cccc(OC2=NS(=O)(=O)c3ccccc32)c1
VALUE REPORTED: inactive
--
ITEM SMILES: Cc1cc(N2C(=O)c3ccccc3C2=O)n[nH]1
VALUE REPORTED: inactive
--
ITEM SMILES: O=C1c2ccccc2C(=O)N1c1cccc(O)c1
VALUE REPORTED: inactive
--
ITEM SMILES: O=C1c2ccccc2C(=O)N1c1cncc2ccccc12
VALUE REPORTED: inactive
--
ITEM SMILES: Fc1ccccc1-c1ccc(-c2nc3ccc(Cl)cn3c2Nc2ccc(Cl)cc2)o1
VALUE REPORTED: inactive
--
ITEM SMILES: COc1ccc(NS(=O)(=O)c2ccc3c(c2)CCC(=O)N3)cc1
VALUE REPORTED: inactive
--
ITEM SMILES: O=C1CCc2cc(S(=O)(=O)Nc3cccc4ccccc34)ccc2N1
VALUE REPORTED: inactive
--
ITEM SMILES: COc1ccc(Nc2c(-c3ccc(C)o3)nc3ccccn23)cc1
VALUE REPORTED: inactive
--
ITEM SMILES: COc1ccc(S(=O)(=O)Nc2ccc(C)c(C)c2)cc1
VALUE REPORTED: inactive
--
ITEM SMILES: Cc1ccc(NS(=O)(=O)c2ccc3c(c2)NC(=O)CO3)cc1C
VALUE REPORTED: inactive

---

Molecular target: Pyruvate kinase PKLR (Homo sapiens)
Test: Secondary LDH Assay for Activators of Human Reticulocyte Pyruvate Kinase: for Probe SAR
Conditions: purified hPK-R, LDH-coupled NADH fluorescence kinetic; series mostly up to 58.4 µM
Records with an inconclusive call do not appear. Active and inactive are the calls of the source. The call rests on the fitted dose curve; in most records, active means well fitted curve in the direction sought with a large enough effect; inconclusive means small, poorly fitted or top-dose-only effect, or effect the other way, or another doubt; inactive means no such curve, though single readings can be large or run the other way.

ITEM SMILES: O=C1c2ccccc2C(=O)N1Cc1ccccn1
MEASUREMENT TARGET: Pyruvate kinase PKLR (Homo sapiens)
outcome: inactive
--
ITEM SMILES: COc1ccccc1NS(=O)(=O)c1ccc2c(c1)CCC(=O)N2
MEASUREMENT TARGET: Pyruvate kinase PKLR (Homo sapiens)
outcome: inactive
--
ITEM SMILES: Nc1cc(S(=O)(=O)N2CCN(S(=O)(=O)c3ccc4c(c3)OCCO4)CC2)ccn1
MEASUREMENT TARGET: Pyruvate kinase PKLR (Homo sapiens)
outcome: inactive
--
ITEM SMILES: O=C1c2ccccc2C(=O)N1Cc1cccnc1
MEASUREMENT TARGET: Pyruvate kinase PKLR (Homo sapiens)
outcome: inactive
--
ITEM SMILES: O=C1c2ccccc2C(=O)N1c1cc(=O)c2ccccc2[nH]1
MEASUREMENT TARGET: Pyruvate kinase PKLR (Homo sapiens)
outcome: inactive
--
ITEM SMILES: CC(=O)Nc1ccc(S(=O)(=O)Nc2ccc(C)c(C)c2)cc1
MEASUREMENT TARGET: Pyruvate kinase PKLR (Homo sapiens)
outcome: inactive
--
ITEM SMILES: Cc1ccc(NS(=O)(=O)c2cc3c(cc2C)OCC(=O)N3)cc1C
MEASUREMENT TARGET: Pyruvate kinase PKLR (Homo sapiens)
outcome: inactive
--
ITEM SMILES: Cc1ccc(NS(=O)(=O)c2ccc3[nH]c(=O)[nH]c3c2)cc1C
MEASUREMENT TARGET: Pyruvate kinase PKLR (Homo sapiens)
outcome: inactive
--
ITEM SMILES: O=S1(=O)N=C(Oc2ccc(Cl)cc2)c2ccccc21
MEASUREMENT TARGET: Pyruvate kinase PKLR (Homo sapiens)
outcome: inactive
--
ITEM SMILES: O=C1CCc2cc(S(=O)(=O)Nc3ccc4ccccc4c3)ccc2N1
MEASUREMENT TARGET: Pyruvate kinase PKLR (Homo sapiens)
outcome: inactive
--
ITEM SMILES: Cc1ccc(NS(=O)(=O)c2cc3c(cc2F)NC(=O)CC3)cc1C
MEASUREMENT TARGET: Pyruvate kinase PKLR (Homo sapiens)
outcome: inactive
--
ITEM SMILES: Cc1ccc(NS(=O)(=O)c2cccc(Cl)c2)cc1C
MEASUREMENT TARGET: Pyruvate kinase PKLR (Homo sapiens)
outcome: inactive
--
ITEM SMILES: Cc1ccc(-c2nc3cnccn3c2Nc2ccc(C(C)C)cc2)o1
MEASUREMENT TARGET: Pyruvate kinase PKLR (Homo sapiens)
outcome: inactive
--
ITEM SMILES: COc1ccccc1N1C(=O)c2ccccc2C1=O
MEASUREMENT TARGET: Pyruvate kinase PKLR (Homo sapiens)
outcome: inactive
--
ITEM SMILES: O=C1c2ccccc2C(=O)N1c1cccc2ncccc12
MEASUREMENT TARGET: Pyruvate kinase PKLR (Homo sapiens)
outcome: inactive
--
ITEM SMILES: O=C1c2ccccc2C(=O)N1c1cccnc1
MEASUREMENT TARGET: Pyruvate kinase PKLR (Homo sapiens)
outcome: inactive
--
ITEM SMILES: Cc1cc(N2C(=O)c3ccccc3C2=O)no1
MEASUREMENT TARGET: Pyruvate kinase PKLR (Homo sapiens)
outcome: inactive
--
ITEM SMILES: Cc1ccc(NS(=O)(=O)c2ccc3c(ccn3C)c2)cc1C
MEASUREMENT TARGET: Pyruvate kinase PKLR (Homo sapiens)
outcome: inactive
--
ITEM SMILES: Cc1ccc(NS(=O)(=O)c2ccc3c(c2)CC(=O)N3)cc1C
MEASUREMENT TARGET: Pyruvate kinase PKLR (Homo sapiens)
outcome: inactive
--
ITEM SMILES: O=C1CCc2cc(S(=O)(=O)Nc3cccc(-c4ccccc4)c3)ccc2N1
MEASUREMENT TARGET: Pyruvate kinase PKLR (Homo sapiens)
outcome: inactive
--
ITEM SMILES: O=C1c2ccccc2C(=O)N1c1nccs1
MEASUREMENT TARGET: Pyruvate kinase PKLR (Homo sapiens)
outcome: inactive
--
ITEM SMILES: Cc1ccc(NS(=O)(=O)c2ccc3c(c2)N(C)CCO3)cc1C
MEASUREMENT TARGET: Pyruvate kinase PKLR (Homo sapiens)
outcome: inactive
--
ITEM SMILES: Cc1ccc(NS(=O)(=O)c2cccc(C(=O)O)c2)cc1C
MEASUREMENT TARGET: Pyruvate kinase PKLR (Homo sapiens)
outcome: inactive
--
ITEM SMILES: Cc1ccc(OC2=NS(=O)(=O)c3ccccc32)cc1
MEASUREMENT TARGET: Pyruvate kinase PKLR (Homo sapiens)
outcome: inactive
--
ITEM SMILES: O=C1c2ccccc2C(=O)N1c1ccccn1
MEASUREMENT TARGET: Pyruvate kinase PKLR (Homo sapiens)
outcome: inactive
